FYI, the data here is from patent US10005846B2.

Recorded measurements of kon, one per entry
tested on: Cynomolgus TG2; experiment: Biacore (SPR) affinity, cynomolgus TG2; assay type: binding, cynomolgus monkey; conditions: +Ca^2+ (1 mM CaCl2 running buffer; includes rows without a Ca mark)
Give the value in M⁻¹ s⁻¹ but do not write M⁻¹ s⁻¹ after it.

hBB001BB: humanised BB7 antibody (heavy chain hBB001HB, light chain hBB001KB by name) (antibody, V domains shown) VH: EVQLLESGGGLVQPGGSLRLSCAASGIIFSSSAMSWVRQAPGKGLEWVATISSGGRSTYYPDSVKGRFTVSRDSSKNTLYLQMNSLRAEDTAVYYCAKLISPYWGQGTLVTVSS VL: DIKMTQSPSSLSASVGDRVTITCKASQDINSYLTWFQQKPGKAPKTLIYLTNRLMDGVPSRFSGSGSGQEFLLTISSLQPEDFATYYCLQYVDFPYTFGQGTKVEIK : 270000

Entry under test: cDC001: chimeric DC1 antibody: murine variable regions, human IgG1 and human kappa (antibody, V domains shown) VH: EVQLVESGGGLVKPGGSLKLSCAASGFTLSTHAMSWVRQTPEKRLEWVATISSGGRSTYYPDSVKGRFTISRDNVKNTLYLQLSSLRSEDTAVYFCARLISTYWGQGTTLTVSS VL: DITMTQSPSSIYASLGERVTITCKASQDINSYLTWFQQKPGKSPKILIYLVNRLVDGVPSRFSGSGSGQDYALTISSLEYEDMGIYYCLQYDDFPYTFGGGTKLEIK . Its kon was 420000

Entry under test: hAB004: humanised AB1 antibody; heavy chain version RHA with light chain version RKE (antibody, V domains shown) VH: EVQLLESGGGLVQPGGSLRLSCAASGFTFSSSAMSWVRQAPGKGLEWVSTISVGGGKTYYPDSVKGRFTISRDNSKNTLYLQMNSLRAEDTAVYYCAKLISLYWGQGTLVTVSS VL: EIVLTQSPSSLSASVGDRVTITCKASQDINSYLTWYQQKPGKAPKLLIYRTNRLFDGVPSRFSGSGSGTDFFFTISSLQPEDFGTYYCLQYDDFPYTFGGGTKLEIK . Its kon was 160000

Entry under test: hAB005: humanised AB1 antibody; heavy chain version RHA with light chain version RKJ (antibody, V domains shown) VH: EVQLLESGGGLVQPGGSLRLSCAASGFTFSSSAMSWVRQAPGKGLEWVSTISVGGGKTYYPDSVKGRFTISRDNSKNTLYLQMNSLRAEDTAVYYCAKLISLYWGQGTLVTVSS VL: DIQMTQSPSSLSASVGDRVTITCKASQDINSYLTWFQQKPGKAPKSLIYRTNRLFDGVPSRFSGSGSGTDFFLTISSLQPEDFATYYCLQYDDFPYTFGQGTKVEIK . Its kon was 140000
